# Tested target: MAGI1_1, Q96QZ7
# Sequence (Q96QZ7 1-106): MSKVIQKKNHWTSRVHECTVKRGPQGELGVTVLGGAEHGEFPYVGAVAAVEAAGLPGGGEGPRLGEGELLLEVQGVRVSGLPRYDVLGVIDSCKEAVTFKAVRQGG
# Assay comment: holdup assay
# Set-up: key: below the threshold = too weak to quantify, mostly under pKd 3.1 to 4
# Condition parameters: plain residues with an end cap or a label only (N-terminal biotin on a linker: ado-ado)
Assay endpoint: pKd

INSERT INTO results (binder, assay_endpoint, reported_measurement) VALUES
  ('DDEDRLVIEI [ZNF831, Q5JPB2]', 'pKd', 'below the threshold'),
  ('LRSPRTPSEV [OR10G3, Q8NGC4]', 'pKd', 'below the threshold'),
  ('GNSVLKSTQF [SLC22A12, Q96S37]', 'pKd', 'below the threshold'),
  ('LPHGHSTTRV [NLGN4X, Q8N0W4]', 'pKd', 'below the threshold'),
  ('YNNCLEILRV [DCAF7, P61962]', 'pKd', 'below the threshold'),
  ('IPLDGETEEL [MYOZ1, Q9NP98]', 'pKd', 'below the threshold'),
  ('QHKTQLQTLI [BPIFA2, Q96DR5]', 'pKd', 3.66),
  ('PRAEAEDSFL [PDGFRB, P09619]', 'pKd', 3.58);
